- assayOverview: Phase I DDI trial, rosuvastatin arm: plasma pharmacokinetics of rosuvastatin and metabolites before and on day 5 of ritonavir
- conditionContext: human, plasma, oral, 10 mg
propertyMeasured: AUC (ng·h/mL)
Expressed in ng·h/mL, but write only the number.

# input Entry CC(C)c1nc(N(C)S(C)(=O)=O)nc(-c2ccc(F)cc2)c1/C=C/[C@@H](O)C[C@@H](O)CC(=O)O [Rosuvastatin, rosuvastatin, reference compound] : reported AUC = ?
# output 40.5

###

- assayOverview: clinical
- conditionContext: human, in vivo, 10 mg
propertyMeasured: Cmax

# input Entry CC(C)c1nc(N(C)S(C)(=O)=O)nc(-c2ccc(F)cc2)c1/C=C/[C@@H](O)C[C@@H](O)CC(=O)O [Rosuvastatin, rosuvastatin, reference compound] : reported Cmax = ?
# output 4.04 ng/mL

###

- assayOverview: Phase I DDI trial, rosuvastatin arm: plasma pharmacokinetics of rosuvastatin and metabolites before and on day 5 of ritonavir
- conditionContext: human, plasma, oral, 10 mg, Vz/F, 5 day of ritonavir (2 × 100 mg/day); single dose 10 mg rosuvastatin; geometric mean (95% CI)
propertyMeasured: Vd/F (L)
Expressed in L, but write only the number.

# input Entry CC(C)c1nc(N(C)S(C)(=O)=O)nc(-c2ccc(F)cc2)c1/C=C/[C@@H](O)C[C@@H](O)CC(=O)O [Rosuvastatin, rosuvastatin, reference compound] : reported Vd/F = ?
# output 5660

###

- assayOverview: Phase I DDI trial, rosuvastatin arm: plasma pharmacokinetics of rosuvastatin and metabolites before and on day 5 of ritonavir
- conditionContext: human, plasma, oral, 10 mg, Vz/F, Baseline; single dose 10 mg rosuvastatin; geometric mean (95% CI)
propertyMeasured: Vd/F (L)
Expressed in L, but write only the number.

# input Entry CC(C)c1nc(N(C)S(C)(=O)=O)nc(-c2ccc(F)cc2)c1/C=C/[C@@H](O)C[C@@H](O)CC(=O)O [Rosuvastatin, rosuvastatin, reference compound] : reported Vd/F = ?
# output 4030

###

- assayOverview: clinical
- conditionContext: human, in vivo, 10 mg
propertyMeasured: Tmax (h)
Expressed in h, but write only the number.

# input Entry CC(C)c1c(C(=O)Nc2ccccc2)c(-c2ccccc2)c(-c2ccc(F)cc2)n1CC[C@@H]1C[C@@H](O)CC(=O)O1 : reported Tmax = ?
# output 3.5
